molecular target: human AT2R fused to Cb23 (Homo sapiens); test: Radioligand binding assay, displacement of 125I-[Sar1, Ile8]-Angiotensin II, hAT2R Cb23; settings: displacement of 125I-[Sar1, Ile8]-Angiotensin II, human AT2R fused to Cb23, HEK-293 cell membrane preparations; read-out: Binding affinity on hAT2R_Cb23 IC50
Sequence (P50052 whole entry, looked up, the tested form may be a part): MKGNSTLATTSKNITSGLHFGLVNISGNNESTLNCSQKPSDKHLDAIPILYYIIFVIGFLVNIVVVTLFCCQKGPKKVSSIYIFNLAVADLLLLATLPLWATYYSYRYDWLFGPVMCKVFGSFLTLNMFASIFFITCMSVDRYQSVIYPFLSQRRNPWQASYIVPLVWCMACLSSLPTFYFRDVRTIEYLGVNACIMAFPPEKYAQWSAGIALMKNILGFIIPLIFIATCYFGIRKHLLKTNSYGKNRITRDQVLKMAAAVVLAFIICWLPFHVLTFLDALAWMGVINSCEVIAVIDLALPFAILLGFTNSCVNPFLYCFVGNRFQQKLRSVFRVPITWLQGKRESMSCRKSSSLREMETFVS
readout: log10(IC50) (log10 of the value in µM)

> print(dat)
                                    molecule                        target.under.test  result
 1  CC(C)Cc1ccc(-c2nn[nH]n2)c(N2CCN(Cc3nc4ccccc4n3C)CC2)c1  human AT2R fused to Cb23 (Homo sapiens)   -0.29
 2  Fc1cc(C2CC2)cc(N2CCN(Cc3nc4ccccc4s3)CC2)c1-c1nn[nH]n1  human AT2R fused to Cb23 (Homo sapiens)   -0.41
 3  CC(C)Oc1cc(C2CC2)c(-c2nn[nH]n2)c(N2CCN(Cc3nc4ccccc4s3)CC2)c1  human AT2R fused to Cb23 (Homo sapiens)   -0.53
 4  CC(C)Cc1ccc(-c2nn[nH]n2)c(C(=O)N2CCN(Cc3cccnn3)CC2)c1  human AT2R fused to Cb23 (Homo sapiens)    0.41
 5  COc1cc(N2CCN(Cc3nc4ccccc4s3)CC2)c(-c2nn[nH]n2)cc1F  human AT2R fused to Cb23 (Homo sapiens)    1.72
 6  CC(C)Oc1cc(C2CC2)c(-c2nn[nH]n2)c(N2CCN(Cc3nc4ccccc4c(=O)[nH]3)CC2)c1  human AT2R fused to Cb23 (Homo sapiens)    0.46
 7  O=c1c2ccccc2nc(-c2ccccc2)n1CC1CCN(c2ccccc2-c2nnn[nH]2)CC1  human AT2R fused to Cb23 (Homo sapiens)    1.90
 8  CC(C)Cc1ccc(-c2nn[nH]n2)c(N2CCN(Cc3cccc(C#N)n3)CC2)c1  human AT2R fused to Cb23 (Homo sapiens)    1.74
 9  COc1cccnc1CN1CCN(c2cc(CC(C)C)cc(F)c2-c2nn[nH]n2)CC1  human AT2R fused to Cb23 (Homo sapiens)    0.26
10  CC(C)Cc1cc(F)c(-c2nn[nH]n2)c(N2CC(C)N(Cc3cccnn3)CC2C)c1 (stereo not shown)  human AT2R fused to Cb23 (Homo sapiens)   -2.08
11  CCNc1ccc(-c2nn[nH]n2)c(N2CCN(Cc3nc4ccccc4s3)CC2)c1  human AT2R fused to Cb23 (Homo sapiens)    0.68
12  c1ccc2sc(CN3CCN(c4cc(OC5CCCC5)ccc4-c4nn[nH]n4)CC3)nc2c1  human AT2R fused to Cb23 (Homo sapiens)    0.28
13  FC(F)COc1ccc(-c2nn[nH]n2)c(N2CCN(Cc3nc4ccccc4s3)CC2)c1  human AT2R fused to Cb23 (Homo sapiens)    0.36
14  CC(C)COc1ccc(-c2nn[nH]n2)c(N2CCN(Cc3nc4ccccc4s3)CC2)c1  human AT2R fused to Cb23 (Homo sapiens)    0.88
15  CCCCOC(=O)NS(=O)(=O)c1ccc(C)cc1N1CCN(Cc2nc3ccccc3n2C)CC1  human AT2R fused to Cb23 (Homo sapiens)   -0.02
16    O=C(O)c1ccccc1CN1CCN(c2nc3ccccc3s2)CC1  human AT2R fused to Cb23 (Homo sapiens)    1.53

* * *

Test: Liver microsomal stability, mouse
Type: in vitro ADME
Details: male, pH 7.4, liver microsomes
Protocol: Mouse hepatic microsomes were isolated from pooled (50), perfused livers of male Balb/c mice. Rat hepatic microsomes were isolated from pooled (15), perfused livers of male Wistar rats. […] Microsomal incubations were carried out in 96-well plates in 5 aliquots of 40 μL each (one for each time point). […] Five time points over 40 minutes have been analyzed. […] Supernatants were analyzed using the HPLC system coupled with tandem mass spectrometer (API3000 PE Sciex). […]
Binary classification by microsomal CLint, with 10 µL/min/mg as an inclusive lower bound for true; all other cases are false.

> print(dat)
                                    compound  label
 1  CC(C)Cc1cc(F)c(-c2nn[nH]n2)c(N2CCN(Cc3cccnn3)[C@@H](C)C2)c1   true
 2  CC(C)Cc1ccc(-c2nn[nH]n2)c(N2CCN(Cc3nc4ccccc4s3)CC2)c1   true
 3  CC(C)Cc1ccc(-c2nn[nH]n2)c(N2CCN(Cc3ncccn3)CC2)c1  false
 4  CCCCNC(=O)NS(=O)(=O)c1ccc(C)cc1N1CCN(Cc2nc3ccccc3n2C)CC1   true
 5  CC(C)Cc1ccc(-c2nn[nH]n2)c(N2CCN(Cc3nc4ccccc4n3C)CC2)c1   true
 6  CC(C)Cc1cc(F)c(-c2nn[nH]n2)c(N2CCN(Cc3cccnn3)C(C)C2)c1 (stereo not shown)  false
 7  CC(C)Oc1ccc(-c2nn[nH]n2)c(N2CCN(Cc3nc4ccccc4n3C)CC2)c1  false
 8  Cc1cc(CN2CCN(c3cc(CC(C)C)ccc3-c3nn[nH]n3)CC2)no1  false
 9  CCC1CN(Cc2cccnn2)CCN1c1cc(CC(C)C)cc(F)c1-c1nn[nH]n1 (stereo not shown)  false
10  CC(C)Oc1ccc(-c2nn[nH]n2)c(N2CCN(Cc3nc4ccccc4s3)CC2)c1  false
11  CCC1CN(c2cc(CC(C)C)cc(F)c2-c2nn[nH]n2)CCN1Cc1cccnn1 (stereo not shown)   true
12  CC(C)Cc1ccc(-c2nn[nH]n2)c(N2CCN(Cc3nc4ccccc4c(=O)[nH]3)CC2)c1   true
13  CC(C)Cc1ccc(-c2nn[nH]n2)c(N2CCN(Cc3nccn3C)CC2)c1   true
14  CC(C)Cc1ccc(-c2nn[nH]n2)c(N2CCN(Cc3ccnn3C)CC2)c1   true
15  CC(C)Cc1cc(F)c(-c2nn[nH]n2)c(N2CC(C)N(Cc3cccnn3)CC2C)c1 (stereo not shown)   true
16  CC(C)Oc1ccc(-c2nn[nH]n2)c(N2CCN(Cc3nc4ccccc4c(=O)[nH]3)CC2)c1  false
17  CCCCNC(=O)NS(=O)(=O)c1ccc(C(F)(F)F)cc1N1CCN(Cc2nc3ccccc3n2C)CC1   true
18  CCCCOC(=O)NS(=O)(=O)c1ccc(C(F)(F)F)cc1N1CCN(Cc2nc3ccccc3n2C)CC1   true

* * *

Property: recovery; scope: individual compounds
experiment: Plasma protein binding (equilibrium dialysis), human; type: in vitro ADME; conditions: plasma (undiluted, freshly thawed), PPB assay recovery
readout: recovery (%)

> print(dat)
                                   compound   readout  unit.descriptor  result
1  CC(C)Cc1cc(F)c(-c2nn[nH]n2)c(N2CCN(Cc3cccnn3)C(C)C2)c1 (centres unmarked)  recovery                %      94
2  CC(C)Cc1cc(F)c(-c2nn[nH]n2)c(N2CC(C)N(Cc3cccnn3)CC2C)c1 (centres unmarked)  recovery                %      96
3  CC(C)Cc1ccc(-c2nn[nH]n2)c(N2CCN(Cc3nc4ccccc4c(=O)[nH]3)CC2)c1  recovery                %      82
4  CC(C)Cc1ccc(-c2nn[nH]n2)c(N2CCN(Cc3cccnn3)CC2)c1  recovery                %      83
5  CCC1CN(Cc2cccnn2)CCN1c1cc(CC(C)C)cc(F)c1-c1nn[nH]n1 (centres unmarked)  recovery                %      95
6  CCC1CN(c2cc(CC(C)C)cc(F)c2-c2nn[nH]n2)CCN1Cc1cccnn1 (centres unmarked)  recovery                %      99
7  CC(C)Cc1cc(F)c(-c2nn[nH]n2)c(N2CCN(Cc3ccccn3)[C@@H](C)C2)c1  recovery                %     100
8  CC(C)Cc1cc(F)c(-c2nn[nH]n2)c(N2CCN(Cc3cccnn3)[C@@H](C)C2)c1  recovery                %      99

* * *

The following molecules are listed with their measured solubility at 2 h values.
assay: Kinetic solubility; format: physicochemical; conditions: aqueous buffer, kinetic from dmso stock; kinetic solubility, phosphate-buffered saline pH 7.4, 2% DMSO, 25° C., two hours; read-out: PBS solubility, pH 7.4
readout: solubility at 2 h (µM)

> print(dat)
                                   molecule  unit.descriptor  readout.relation  result
1  CCCCOC(=O)NS(=O)(=O)c1ccc(C(F)(F)F)cc1N1CCN(Cc2nc3ccccc3n2C)CC1 [Compound A-09]               µM                 =     318
2  CCCCNC(=O)NS(=O)(=O)c1ccc(C(F)(F)F)cc1N1CCN(Cc2nc3ccccc3n2C)CC1 [Compound A-10]               µM                 ≥     400
3  CCCCNC(=O)NS(=O)(=O)c1ccc(C)cc1N1CCN(Cc2nc3ccccc3n2C)CC1 [Compound A-12]               µM                 =      54
4  CCC1CN(Cc2cccnn2)CCN1c1cc(CC(C)C)cc(F)c1-c1nn[nH]n1 (stereo not drawn) [Compound A-181]               µM                 ≥     400
5  CC(C)Cc1ccc(-c2nn[nH]n2)c(N2CCN(Cc3nc4ccccc4c(=O)[nH]3)CC2)c1 [Compound A-31]               µM                 ≥     400
6  CC(C)Cc1cc(F)c(-c2nn[nH]n2)c(N2CCN(Cc3cccnn3)C(C)C2)c1 (stereo not drawn) [Compound A-173]               µM                 =     376
